Test system: RARg:RXRa (NR concentration 270 nM, RXRa partner concentration 90 nM)
assay: PBM binding z-score (relative to random genomic background probes); higher = stronger binding; sequences stand for … in GC…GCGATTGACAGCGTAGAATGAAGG
Everything with PBM binding z-score lower than 0.6 is label 0; everything else, including exactly 0.6, is label 1.

>  <chain-sequence>
TCGAGTAGGTAACCAATGGGGCATTCAGCTTTCT

>  <group>
label 0

$$$$
>  <chain-sequence>
ACTGTTAGTTGAGACGAGGGCAACCGATAGGTTG

>  <group>
label 1

$$$$
>  <chain-sequence>
CGTCCAGGGTCATAGGAGGTCAGTGAAGACAGAT

>  <group>
label 1

$$$$
>  <chain-sequence>
TCATATAGGTAAATGCTAGGTGAAAGTACGATCT

>  <group>
label 1

$$$$
>  <chain-sequence>
TCTAATTGGTCAAAGGTCACACACTCGAAATGCG

>  <group>
label 1

$$$$
>  <chain-sequence>
AGAACGAGGGCAATGTGTTGATAGCACGGGTGGC

>  <group>
label 1

$$$$
>  <chain-sequence>
TCTTGTAGATCAGCAGGCTAAGAAAGCTGGCCAA

>  <group>
label 0

$$$$
>  <chain-sequence>
CTACCAAGGTGAACAAGGTAGTTGATTACTATTC

>  <group>
label 1

$$$$
>  <chain-sequence>
CCAGACAGGTGAGAAGGAAACTCAGCCTCGATTA

>  <group>
label 0

$$$$
>  <chain-sequence>
GTACCAAGGTGAATAGGTCGTTCATGAGTAGGCG

>  <group>
label 1

$$$$

Could you verify whether the entry CCTCGGAGGACAACAGGAGCTCAGAGCTGCCAGA shows PBM binding z-score of no less than 0.6?
label 0

* * *

Test system: PPARg:RXRa 90nM:30nM, anti-RXR (NR concentration 90 nM, RXRa partner concentration 30 nM)
assay: PBM binding z-score (relative to random genomic background probes); higher = stronger binding; sequences stand for … in GC…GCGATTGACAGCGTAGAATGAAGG
Grouping by measured PBM binding z-score is done with the following cut points: bottom (below 1), middle (1 to below 4), top (4 or more)

Solved cases (8 shown):
>  <chain-sequence>
CCTTACGGGTCACGAGGTTATAGCTCGACGAGCG

>  <group>
top

$$$$
>  <chain-sequence>
CCTACTGGGCCAAGGTGATTGATCAGTCAAAGCA

>  <group>
middle

$$$$
>  <chain-sequence>
GATGCTAGGTCAACTGATGGTCAGCTAAAGCTCG

>  <group>
middle

$$$$
>  <chain-sequence>
AGACAAAGTTCATCTAGGTAACGTAAGATATGCT

>  <group>
middle

$$$$
>  <chain-sequence>
TCTATAAGTTGATTAGGGCAACCGAAACAGCGGA

>  <group>
middle

$$$$
>  <chain-sequence>
CTACCAAGGTGAAGAAGGTCGTTGATTACTATTC

>  <group>
bottom

$$$$
>  <chain-sequence>
GCAGACAGGAGAAACGCAGGTAACTCAGGGTGGC

>  <group>
bottom

$$$$
>  <chain-sequence>
CTCGAAAGGTCGGTTGAGTTGAGTATACGGATAA

>  <group>
bottom

$$$$

Form field 'band' for CCGAGTAGGTTATCGGGCATTCAGGCAACGGTGA
middle

Field: class (PBM binding z-score) — entry: CCTTACGGGTCACGAGATTATAGCACGACGAGCG
top

Record CGTCAAAGTTCAACTAAGGTAAAGTAAAGCACGC — which class?
top

Exam item: assign CCGAGTAGGTTATGGGGCCTTCAGGCAACGGTGA to the correct category.
middle
